Overview of recorded Clot/heart for various substances
test: Incorporation into clots induced in a rat model (rat inferior vena cava model); format: in vivo, rat (Male Wistar); settings: Aged Clots
code Z = not defined here
Give only the figure.

Some substances with recorded Clot/heart:
>>> readoutnumber("Z-NQEQVSPYTLLKG-Pn216 ({code Z}-NQEQVSPYTLLKG-Pn216; reading uncertain; also: 99mTc complex, printed as Z-NQEQVSPYTLLKG-Pn216) [^99mTc-Cmpd 8]")
24
>>> readoutnumber("Cyclo-[NQEQVSPYTLLKG] (cyclo(NQEQVSPYTLLKG); also: 123I label, place not given here) [^123I-Cmpd 44]")
1

Q) I have this substance here, Ac-NQEQVSPYTLL(D-K)G-Pn216 [^99mTc-Cmpd 28] , and I need its recorded Clot/heart.
A) 3

Q) Another: Ac-NQQQVSPYTLLKG-Pn216 (also: 99mTc complex) [^99mTc-Cmpd 15]
A) 1

Q) Another: Ac-NQEQVSP(D-Y)TLL(D-K)G-Pn216 [^99mTc-Cmpd 29]
A) 67

* * *

assay: Incorporation into clots induced in a rat model (rat inferior vena cava model); assay type: in vivo, rat (Male Wistar); settings: Fresh Clots
observedProperty: Clot/blood
Give only the figure.

Some substances with recorded Clot/blood:
>>> readoutnumber("Ac-NQQQVSPYTLLKG-Pn216 (also: 99mTc complex) [^99mTc-Cmpd 15]")
4
>>> readoutnumber("Ac-NQEQVSP-Nal(2)-TLLKG-Pn216 [^99mTc-Cmpd 20]")
12
>>> readoutnumber("Ac-NQEQVSP(I2-Y)TLLKG-Pn216 [^99mTc-Cmpd 23]")
6

Q) I have this substance here, Ac-NAEAVSPYTLLKG-Pn216 (also: 99mTc complex) [^99mTc-Cmpd 14] , and I need its recorded Clot/blood.
A) 2

* * *

experiment: Incorporation into clots induced in a rat model (rat inferior vena cava model); assay type: in vivo, rat (Male Wistar); settings: Aged Clots: injected 60 min post-induction, sacrificed after 60 min
code Z = not defined here
Mark criterion met only when % id/g (clot) stays strictly below 1 % id/g. Values equal to the cut-off are criterion not met.

Some solved entries appear below for comparison.
>>> labelclass("Fmoc-NQEQVSP(I-Y)TLLKG-Pn216 [^99mTc-Cmpd 26]")
"criterion not met"
>>> labelclass("Ac-NQEQVSP(I2-Y)TLLKG-Pn216 [^99mTc-Cmpd 23]")
"criterion not met"
>>> labelclass("(CF3)2(C6H3)-NQEQVSPYTLLKG-Pn216 ({(CF3)2(C6H3)}-NQEQVSPYTLLKG-Pn216; also: 99mTc complex) [^99mTc-Cmpd 10]")
"criterion not met"
>>> labelclass("Z-NQEQVSPYAAAAG-Pn216 ({code Z}-NQEQVSPYAAAAG-Pn216; reading uncertain; also: 99mTc complex, printed as Z-NQEQVSPYAAAAG-Pn216) [^99mTc-Cmpd 42]")
"criterion met"
>>> labelclass("p-EAQIVG-Pn44 [^99mTc-Cmpd 46]")
"criterion met"
>>> labelclass("Z-NQEQVSPYTLLKG-Pn216 ({code Z}-NQEQVSPYTLLKG-Pn216; reading uncertain; also: 99mTc complex, printed as Z-NQEQVSPYTLLKG-Pn216) [^99mTc-Cmpd 8]")
"criterion not met"

Q) % id/g (clot) strictly < 1 % id/g for this substance? Ac-NQEQVSPYTLLKG-Hynic (also: 99mTc complex) [^99mTc-Cmpd 4]
A) criterion not met
